Where these numbers come from: PubChem BioAssay (EPA / NIEHS)

# test.description: APR_HepG2_CellCycleArrest_24hr: Apredica 24-hour HepG2 Assay for Cell Cycle Arrest (AID 2282905);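 note: cell cycle arrest scored as ratio of 2N to 4N nuclear DNA content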
# assay.setup: imaging, actives raise or lower the signal
The source made the active and inactive calls. Rule for the calls: active = hit-call score of the fitted dose curve at least 0.9, where 1 is the maximum; inactive = score below 0.9.
Entry note: the call must match one of active, inactive

A selection of reference data follows.
Prompt: Give the logged outcome of this assay for the following molecule: CCCCC(CC)COC(=O)c1ccc(C(=O)OCC(CC)CCCC)cc1 (stereo not given)
Completion: inactive

Prompt: Give the logged outcome of this assay for the following molecule: CN(C)c1ccc(Cc2ccc(N(C)C)cc2)cc1
Completion: inactive

Prompt: Give the logged outcome of this assay for the following molecule: CC(C)(O)c1coc(S(=O)(=O)NC(=O)Nc2c3c(cc4c2CCC4)CCC3)c1
Completion: inactive

Prompt: Give the logged outcome of this assay for the following molecule: Cc1ccc(O)cc1
Completion: inactive

Prompt: Give the logged outcome of this assay for the following molecule: CC(O)CN(CCN(CC(C)O)CC(C)O)CC(C)O (stereo not given)
Completion: inactive

Next:
Prompt: Give the logged outcome of this assay for the following molecule: Cc1ccc(N)cc1O
Completion: inactive

Prompt: Give the logged outcome of this assay for the following molecule: CCCCCCCCCCCCc1ccccc1
Completion: inactive

Prompt: Give the logged outcome of this assay for the following molecule: C[C@](N)(Cc1ccc(O)c(O)c1)C(=O)O
Completion: inactive

Prompt: Give the logged outcome of this assay for the following molecule: COc1ccc(/C=C/S(=O)(=O)NC(=O)c2ccc(C)cc2Cl)cc1
Completion: active

Prompt: Give the logged outcome of this assay for the following molecule: CCCN(C1CCN(C(=O)C2CCNCC2)CC1)[C@@H]1CCc2ccc(OC)cc2C1
Completion: inactive

Prompt: Give the logged outcome of this assay for the following molecule: CC[C@H]1CC[C@H](NCc2cc3c(cc2OC)[C@H]2C[C@H]2C(=O)N3C)[C@H](c2ccccc2)N1
Completion: inactive

Prompt: Give the logged outcome of this assay for the following molecule: O=C(O)CC(O)C(=O)O (stereo not given)
Completion: inactive

Prompt: Give the logged outcome of this assay for the following molecule: O=C1CCC(N2C(=O)c3ccccc3C2=O)C(=O)N1 (stereo not given)
Completion: inactive

###

# test.description: BSK_4H_Eotaxin3: BioMAP Diversity Plus: 4H Assay for Eotaxin 3 Biomarker Activity (AID 2283000);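 for outcome: CCL26 protein level quantified by ELISA in parallel with SRB cytotoxicity check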
# assay.setup: primary human endothelial cells (HUVEC); actives raise or lower the signal
Activity calls are given as the source filed them. How the source made its calls: active means hit-call score of the fitted dose curve at least 0.9, where 1 is the maximum; inactive means score below 0.9.
Entry note: the call must match one of y for active, n for inactive

Prompt: Give the logged outcome of this assay for the following compound: CNS(=O)(=O)c1cc(C(=O)N2CCC(CCN3C4CCC3CC(n3c(C)nc5ccccc53)C4)(c3cccc(F)c3)CC2)c(Cl)cc1F (centres undefined)
Completion: y

Next:
Prompt: Give the logged outcome of this assay for the following compound: CN(C)c1ccc(Cc2ccc(N(C)C)cc2)cc1
Completion: n

Prompt: Give the logged outcome of this assay for the following compound: CCOC(=O)COc1ccc2c(c1)CC(NCC(O)c1cccc(Cl)c1)CC2 (centres undefined)
Completion: y

Prompt: Give the logged outcome of this assay for the following compound: CCCCC(CC)COC(=O)CCCCCCCCC(=O)OCC(CC)CCCC (centres undefined)
Completion: n

###

# Read-out: growth arrest and DNA damage 45 (GADD45A), GADD45A (gene 1647)
# test.description: LTEA_HepaRG_GADD45A: Life Technologies and Expression Analysis (LTEA) Assay for growth arrest and DNA damage 45 (GADD45A) using HepaRG (AID 2283458)
# assay.setup: mRNA level, 48 h; actives raise or lower the signal
Calls of active or inactive are those of the source. The calls were made as follows: active = hit-call score of the fitted dose curve at least 0.9, where 1 is the maximum; inactive = score below 0.9.
Entry note: the call must match one of t = active, f = inactive

A selection of reference data follows.
Prompt: Give the logged outcome of this assay for the following compound: CC(C)c1cccc(C(C)C)c1N1C(=O)c2ccc(O)cc2C1=O
Completion: f

Prompt: Give the logged outcome of this assay for the following compound: CC(C)CCO
Completion: f

Prompt: Give the logged outcome of this assay for the following compound: CNCc1ccc(NC(=O)c2c[nH]c3c2C(=O)CCC3)cc1
Completion: f

Next:
Prompt: Give the logged outcome of this assay for the following compound: CCCC(=O)OCC
Completion: f

Prompt: Give the logged outcome of this assay for the following compound: O=C(O)CCN(C1(C(=O)NO)CCCC1)S(=O)(=O)c1ccc(Oc2ccc(F)cc2)cc1
Completion: f

Prompt: Give the logged outcome of this assay for the following compound: CCCCCCCCCCCCc1ccccc1
Completion: f
